All figures here come from paper PMC6801448.

protocol: DPPH radical scavenging assay
Format: biochemical
condition notes: 5 min treatment; read-out: IC50 of DPPH• inhibition, Treatm. 5 min
readout: pIC50
Please treat pIC50 as minus the base-10 logarithm of the molar concentration.

State its pIC50: CCCCCc1ccc(-c2cn(C[C@H](O)[C@H]3OC(=O)C(O)=C3O)nn2)cc1 3.68

State its pIC50: O=C1O/C(=C\Cn2cc(CCCCl)nn2)C(O)=C1O 3.70

State its pIC50: Cc1ccc(-c2cn(C/C=C3\OC(=O)C(O)=C3O)nn2)cc1 4.00

State its pIC50: O=C1O[C@H]([C@@H](O)Cn2cc(CNS(=O)(=O)c3ccc(Cl)cc3)nn2)C(O)=C1O 3.57

State its pIC50: Cc1ccc(-c2cn(C[C@H](O)[C@H]3OC(=O)C(O)=C3O)nn2)cc1 3.70

State its pIC50: O=C1O[C@H]([C@@H](O)Cn2cc(-c3cc(F)cc(F)c3)nn2)C(O)=C1O 3.57

State its pIC50: O=C1O/C(=C\Cn2cc(-c3cc(F)cc(F)c3)nn2)C(O)=C1O 3.64

State its pIC50: O=C1O[C@H]([C@@H](O)Cn2ccnn2)C(O)=C1O 3.89

State its pIC50: O=C1O[C@H]([C@@H](O)Cn2cc(-c3ccc(Br)cc3)nn2)C(O)=C1O 3.70

State its pIC50: CCCCCCCCCCc1cn(C/C=C2\OC(=O)C(O)=C2O)nn1 3.85

###

Give IC50 for every item shown.
protocol: DPPH radical scavenging assay
Assay type: biochemical
condition notes: 5 min treatment; read-out: IC50 of DPPH• inhibition, Treatm. 5 min
I only need the number, in µM, no unit after it.

State its IC50: COc1ccc(-c2cn(C[C@H](O)[C@H]3OC(=O)C(O)=C3O)nn2)cc1 190

State its IC50: O=C1O[C@H]([C@@H](O)CO)C(O)=C1O 180

State its IC50: O=C1O/C(=C\Cn2cc(-c3ccccc3O)nn2)C(O)=C1O 100

State its IC50: CC(C)(C)c1cn(C/C=C2\OC(=O)C(O)=C2O)nn1 200

State its IC50: O=C1O/C(=C\Cn2cc(CCO)nn2)C(O)=C1O 70

State its IC50: O=C1O[C@H]([C@@H](O)Cn2cc(CCO)nn2)C(O)=C1O 240

State its IC50: O=C1O[C@H]([C@@H](O)Cn2cc(CCCCl)nn2)C(O)=C1O 150

State its IC50: O=C1O[C@H]([C@@H](O)Cn2cc(C3CC3)nn2)C(O)=C1O 170

State its IC50: O=C1O/C(=C\Cn2cc(C3CC3)nn2)C(O)=C1O 200

State its IC50: CC(C)(C)c1cn(C[C@H](O)[C@H]2OC(=O)C(O)=C2O)nn1 240

State its IC50: CCCCCCCCCCc1cn(C[C@H](O)[C@H]2OC(=O)C(O)=C2O)nn1 150

State its IC50: CCCCc1cn(C/C=C2\OC(=O)C(O)=C2O)nn1 200

State its IC50: O=C1O[C@H]([C@@H](O)Cn2cc(CNS(=O)(=O)c3ccc(F)cc3Cl)nn2)C(O)=C1O 220

State its IC50: O=C1O[C@H]([C@@H](O)Cn2cc(-c3cc(C(F)(F)F)cc(C(F)(F)F)c3)nn2)C(O)=C1O 260

State its IC50: O=C1O[C@H]([C@@H](O)Cn2cc(CSC(=S)N3CCNCC3)nn2)C(O)=C1O 270

State its IC50: Cc1ccc(S(=O)(=O)NCc2cn(C[C@H](O)[C@H]3OC(=O)C(O)=C3O)nn2)cc1 250
